Tested on: K. pneumoniae 2689
Assay: MIC against K. pneumoniae 2689
Format: cell-based
Details: Klebsiella pneumoniae, 2689, Table 3; K. pneumoniae 2689, KPC-2; alone; read-out: MIC
Entries and their MIC
Answer format: numeric, µg/mL implied, no suffix.

Guide cases for MIC, answers given:
>>> df
                                  structure  attribute_measured  observed_measurement
0  CC(C)(O/N=C(\C(=O)N[C@@H]1C(=O)N2C(C(=O)[O-])=C(C[n+]3ccc4c(ccn4Cc4cc(C(=N)N)cs4)c3)CS[C@H]12)c1csc(N)n1)C(=O)O                 MIC                     8
1  CC(C)(O/N=C(\C(=O)N[C@@H]1C(=O)N2C(C(=O)[O-])=C(C[n+]3ccc4c(ccn4Cc4ccc(C(=N)N)cc4)c3)CS[C@H]12)c1csc(N)n1)C(=O)O                 MIC                    16

Hi! What's the reported MIC for CC(C)(O/N=C(\C(=O)N[C@@H]1C(=O)N2C(C(=O)[O-])=C(C[n+]3ccc4c(ccn4Cc4cc(C(=N)N)co4)c3)CS[C@H]12)c1csc(N)n1)C(=O)O on K. pneumoniae 2689?
16

Same for CO/N=C(\C(=O)N[C@@H]1C(=O)N2C(C(=O)[O-])=C(C[n+]3ccc4c(ccn4Cc4cc(C(=N)Nc5nccs5)cs4)c3)CS[C@H]12)c1nc(N)sc1Cl
32

Same for CO/N=C(\C(=O)N[C@@H]1C(=O)N2C(C(=O)[O-])=C(C[n+]3ccc4c(ccn4Cc4cc(C(=N)Nc5ccccc5)cs4)c3)CS[C@H]12)c1nc(N)sc1Cl
16

Same for CC(C)(O/N=C(\C(=O)N[C@@H]1C(=O)N2C(C(=O)[O-])=C(C[n+]3ccc4n3CCN4Cc3ccc(C(=N)N)cc3)CS[C@H]12)c1csc(N)n1)C(=O)O
32

Same for CC(C)(O/N=C(\C(=O)N[C@@H]1C(=O)N2C(C(=O)[O-])=C(C[n+]3ccc4n(Cc5ccc(C(=N)N)cc5)ccn43)CS[C@H]12)c1csc(N)n1)C(=O)O
16

----------
Entries and their MIC
Tested on: S. pneumoniae ATCC 700673
Test: MIC against S. pneumoniae ATCC 700673
Assay type: cell-based
Details: Streptococcus pneumoniae, ATCC700673; Table 2; S. pneumoniae ATCC 700673, Pen R; alone; read-out: MIC
Answer format: numeric, µg/mL implied, no suffix.

Guide cases for MIC, answers given:
                                  structure               study_system  attribute_measured  unit_text  observed_measurement
0  CC(C)(O/N=C(\C(=O)N[C@@H]1C(=O)N2C(C(=O)[O-])=C(C[n+]3ccc4c(ccn4Cc4cc(C(=N)N)cs4)c3)CS[C@H]12)c1csc(N)n1)C(=O)O  S. pneumoniae ATCC 700673                 MIC      µg/mL                     2
1  CC(C)(O/N=C(\C(=O)N[C@@H]1C(=O)N2C(C(=O)[O-])=C(C[n+]3ccc4c(ccn4Cc4cc(C(=N)N)co4)c3)CS[C@H]12)c1csc(N)n1)C(=O)O  S. pneumoniae ATCC 700673                 MIC      µg/mL                     2
2  CC(C)(O/N=C(\C(=O)N[C@@H]1C(=O)N2C(C(=O)[O-])=C(C[n+]3ccc4c(ccn4Cc4ccc(C(=N)N)cc4)c3)CS[C@H]12)c1csc(N)n1)C(=O)O  S. pneumoniae ATCC 700673                 MIC      µg/mL                     2

The record that follows has no MIC shown yet.
Query (compound): CC(C)(O/N=C(\C(=O)N[C@@H]1C(=O)N2C(C(=O)[O-])=C(C[n+]3ccc4n3CCN4Cc3ccc(C(=N)N)cc3)CS[C@H]12)c1csc(N)n1)C(=O)O ; field requested: MIC
8

----------
System: K. pneumoniae 2711
Experiment: MIC against K. pneumoniae 2711
Type: cell-based
Conditions: Table 3; K. pneumoniae 2711, KPC-3, VIM-1; in combination with NXL-104
Entries and their MIC

Guide cases for MIC, answers given:
COMPOUND	STUDY_SYSTEM	OBSERVED_MEASUREMENT
CC(C)(O/N=C(\C(=O)N[C@@H]1C(=O)N2C(C(=O)[O-])=C(C[n+]3ccccc3)CS[C@H]12)c1csc(N)n1)C(=O)O [CAZ, ceftazidime, reference compound]	K. pneumoniae 2711	2 µg/mL
CC(C)(O/N=C(\C(=O)N[C@@H]1C(=O)N2C(C(=O)[O-])=C(C[n+]3ccc4n(Cc5ccc(C(=N)N)cc5)ccn43)CS[C@H]12)c1csc(N)n1)C(=O)O	K. pneumoniae 2711	1 µg/mL
CC(C)(O/N=C(\C(=O)N[C@@H]1C(=O)N2C(C(=O)[O-])=C(C[n+]3ccc4c(ccn4Cc4cc(C(=N)N)co4)c3)CS[C@H]12)c1csc(N)n1)C(=O)O	K. pneumoniae 2711	0.5 µg/mL

Query (compound): CO/N=C(\C(=O)N[C@@H]1C(=O)N2C(C(=O)[O-])=C(C[n+]3ccc4c(ccn4Cc4cc(C(=N)Nc5ccccc5)cs4)c3)CS[C@H]12)c1nc(N)sc1Cl ; field requested: MIC
0.5 µg/mL

Same for CC(C)(O/N=C(\C(=O)N[C@@H]1C(=O)N2C(C(=O)[O-])=C(C[n+]3ccc4n3CCN4Cc3ccc(C(=N)N)cc3)CS[C@H]12)c1csc(N)n1)C(=O)O
0.5 µg/mL

Same for CO/N=C(\C(=O)N[C@@H]1C(=O)N2C(C(=O)[O-])=C(C[n+]3ccc4c(ccn4Cc4cc(C(=N)Nc5nccs5)cs4)c3)CS[C@H]12)c1nc(N)sc1Cl
0.5 µg/mL

Same for CC(C)(O/N=C(\C(=O)N[C@@H]1C(=O)N2C(C(=O)[O-])=C(C[n+]3ccc4c(ccn4Cc4cc(C(=N)N)cs4)c3)CS[C@H]12)c1csc(N)n1)C(=O)O
0.25 µg/mL

----------
Entries and their MIC
Tested on: E. cloacae 2710
Experiment: MIC against E. cloacae 2710
Type: cell-based
Settings: Table 3; E. cloacae 2710, KPC-3, VIM-1; in combination with NXL-104

Guide cases for MIC, answers given:
MOLECULE	MIC
CC(C)(O/N=C(\C(=O)N[C@@H]1C(=O)N2C(C(=O)[O-])=C(C[n+]3ccc4n3CCN4Cc3ccc(C(=N)N)cc3)CS[C@H]12)c1csc(N)n1)C(=O)O [Example 2]	>32 µg/mL
CC(C)(O/N=C(\C(=O)N[C@@H]1C(=O)N2C(C(=O)[O-])=C(C[n+]3ccc4c(ccn4Cc4cc(C(=N)N)co4)c3)CS[C@H]12)c1csc(N)n1)C(=O)O [Example 6]	>32 µg/mL

The record that follows has no MIC shown yet.
Query (molecule): CC(C)(O/N=C(\C(=O)N[C@@H]1C(=O)N2C(C(=O)[O-])=C(C[n+]3ccc4c(ccn4Cc4cc(C(=N)N)cs4)c3)CS[C@H]12)c1csc(N)n1)C(=O)O [Example 5] ; field requested: MIC
>32 µg/mL

----------
Entries and their MIC
System: K. pneumoniae 4107
Assay: MIC against K. pneumoniae 4107
Assay type: cell-based
Details: Klebsiella pneumoniae, 4107, Table 2; K. pneumoniae 4107, KPC-2, TEM-1, SHV-11; alone; read-out: MIC
Answer format: numeric, µg/mL implied, no suffix.

Guide cases for MIC, answers given:
>>> df
                                  structure        study_system  attribute_measured  observed_measurement
0  CC(C)(O/N=C(\C(=O)N[C@@H]1C(=O)N2C(C(=O)[O-])=C(C[n+]3ccc4c(ccn4Cc4cc(C(=N)N)co4)c3)CS[C@H]12)c1csc(N)n1)C(=O)O  K. pneumoniae 4107                 MIC                    32
1  CC(C)(O/N=C(\C(=O)N[C@@H]1C(=O)N2C(C(=O)[O-])=C(C[n+]3ccc4n3CCN4Cc3ccc(C(=N)N)cc3)CS[C@H]12)c1csc(N)n1)C(=O)O  K. pneumoniae 4107                 MIC                    16
2  CC(C)(O/N=C(\C(=O)N[C@@H]1C(=O)N2C(C(=O)[O-])=C(C[n+]3ccc4c(ccn4Cc4cc(C(=N)N)cs4)c3)CS[C@H]12)c1csc(N)n1)C(=O)O  K. pneumoniae 4107                 MIC                    32

The record that follows has no MIC shown yet.
Query (compound): CC(C)(O/N=C(\C(=O)N[C@@H]1C(=O)N2C(C(=O)[O-])=C(C[n+]3ccc4c(ccn4Cc4ccc(C(=N)N)cc4)c3)CS[C@H]12)c1csc(N)n1)C(=O)O ; field requested: MIC
16
